B1: FBXO34 (parent)
chain: PRYREDPCKQCKKKYVKGDVSLCR

# Variants of: B1
# experimental.details: protein stability index of a GFP-peptide fusion (GPS, HEK-293T) (PSI 1-6); higher = more stable;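 further: lentivirally expressed fusions sorted by FACS into six bins by GFP to DsRed ratio, PSI derived from sequencing read proportions per bin multiplied by bin number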
# condition.info: c terminus: a fixed tail appended
The label depends only on protein stability index: 1.0 if it is at least 3, 0.0 if it is smaller.

K9S 0.0
K17P 0.0
K13C 0.0

hey, is protein stability index for this one >= 3? "R24P"
1.0

hey, is protein stability index for this one >= 3? "G18V"
0.0

hey, is protein stability index for this one >= 3? "E5Q"
0.0

hey, is protein stability index for this one >= 3? "K9G"
0.0

hey, is protein stability index for this one >= 3? "K12W"
0.0
